Values compiled from ChEMBL document CHEMBL4825712.

Listing: selectivity ratio of selected compounds
Test: Selectivity index, ratio of CC50 for human A549 cells to IC50 for antiviral activity against Influenza A virus A/WSN/33(H1N1) infected in human A549 cells
Assay type: toxicity, cell-based
Details: read-out: Selectivity Index

>>> result("CCN(c1ccccc1)S(=O)(=O)c1cc(Cl)ccc1Cl")
"> 6"
>>> result("CCN(c1c(C)cc(Cl)cc1Cl)S(=O)(=O)c1cc(Cl)ccc1Cl")
"> 13"
>>> result("Cc1cc(Cl)ccc1N(C(F)F)S(=O)(=O)c1cc(Cl)ccc1Cl")
"> 4"
>>> result("CCN(c1ccc(Cl)cc1C)S(=O)(=O)c1cc(Cl)ccc1Cl")
"> 147"
>>> result("CCN(c1ccc(F)cc1F)S(=O)(=O)c1cc(F)ccc1Cl")
"> 114"

Field: next compound
(Q) Name the recorded selectivity ratio of the item `CCN(c1ccc(C)cc1)S(=O)(=O)c1cc(Cl)ccc1Cl` in your answer.
(A) > 298
